test system: Plasmodium falciparum; assay: Antiparasitic activity against Plasmodium falciparum 3D7 infected in erythrocytes assessed as inhibition of parasite growth at 50 uM incubated for 48 hrs by SYBR Green I dye based fluorescence assay relative to control; type: functional; settings: 3D7, Erythrocyte
This section presents compounds with their documented inhibition at 50 µM values.
// units = %; emit number, no label

Before answering, review these 3 worked examples.
1) CO[C@@H]1C[C@H](O[C@H]2C[C@@H]3C[C@H](O)[C@@H](C)[C@](O)(C[C@@H](O)CCCC(=O)O[C@H](C[C@@H](O)[C@H](C)[C@@H](O)[C@@H](C)[C@@H](O)CC(C)C)[C@@H](C)/C=C/C=C/[C@@H](O)C2)O3)O[C@H](C)[C@H]1O ... 34
2) CO[C@@H]1C[C@H](O[C@H]2C[C@@H]3C[C@H](O)[C@@H](C)[C@](O)(C[C@@H](O)CCCC(=O)O[C@H](C[C@@H](O)[C@H](C)[C@@H](O)[C@@H](C)[C@H](CC(C)C)O[C@H]4CC[C@H](O[C@H]5C[C@@H](O)[C@H](O[C@H]6C[C@@H](O)[C@H](O)[C@@H](C)O6)[C@@H](C)O5)[C@@H](C)O4)[C@@H](C)/C=C/C=C/[C@@H](O)C2)O3)O[C@H](C)[C@H]1O ... 74.8
3) CCN(CC)CCCC(C)Nc1ccnc2cc(Cl)ccc12 (centres undefined) ... 100

Could you now consider this next compound?
Documented inhibition at 50 µM of CO[C@H]1[C@H](O)C[C@H](O[C@H]2[C@H](O)C[C@H](O[C@H]3CC[C@H](O[C@@H](CC(C)C)[C@H](C)[C@H](O)[C@@H](C)[C@H](O)C[C@H]4OC(=O)CCC[C@H](O)C[C@]5(O)O[C@H](C[C@H](O[C@H]6C[C@@H](OC)[C@H](O)[C@@H](C)O6)C[C@H](O)/C=C/C=C/[C@@H]4C)C[C@H](O)[C@H]5C)O[C@@H]3C)O[C@@H]2C)O[C@@H]1C : 95.6
